- SYSTEM_NAME: human Edg-1 receptor (Homo sapiens, UniProt P21453)
- Construct: expressed in transfected cells; membrane preparation
- Sequence (P21453 whole entry): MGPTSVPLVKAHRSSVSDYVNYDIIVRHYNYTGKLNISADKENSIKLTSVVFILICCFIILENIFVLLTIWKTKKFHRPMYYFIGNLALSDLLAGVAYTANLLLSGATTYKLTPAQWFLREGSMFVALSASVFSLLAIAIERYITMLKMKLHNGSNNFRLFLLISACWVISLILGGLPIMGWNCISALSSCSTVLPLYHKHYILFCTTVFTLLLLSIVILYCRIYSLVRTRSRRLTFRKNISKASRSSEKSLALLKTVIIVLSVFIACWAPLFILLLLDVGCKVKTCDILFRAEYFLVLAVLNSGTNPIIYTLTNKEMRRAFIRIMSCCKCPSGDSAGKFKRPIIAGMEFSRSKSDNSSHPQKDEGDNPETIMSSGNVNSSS
- ASSAY_METHOD_TEXT: GTP-γ-S assay using human Edg-1 receptors (scintillation proximity assay, CHO Flp-In cell membrane preparation)
- Assay type: biochemical
- CONDITION_LABEL: test compound at 10 μM; 10 μM S1P high control regarded as 100% activation; triplicate; read-out: % Activation (Edg-1 receptor activation in percent of the activation by 10 μM S1P)
ENDPOINT: activation at 10 µM (%)

Previously resolved entries follow.
1. Cc1cc(-c2nc3cnc(Oc4ccc(Cl)cc4)nc3o2)cc(C)c1OCC(=O)O :: 105
2. Cc1cc(-c2nc3cnc(Oc4cc(F)ccc4F)nc3o2)cc(C)c1OCC(=O)O :: 103
3. Cc1ccc(F)cc1Oc1ncc2nc(-c3cc(C)c(OCC(=O)O)c(C)c3)oc2n1 :: 112
4. Cc1cc(-c2nc3cnc(Oc4ccccc4)nc3o2)cc(C)c1OCC(=O)O :: 116
5. Cc1ccc(Oc2ncc3nc(-c4cc(C)c(OCC(=O)O)c(C)c4)oc3n2)c(F)c1 :: 101
6. O=C(O)/C=C/c1ccc(-c2nc3cnc(Oc4ccccc4F)nc3o2)cc1 :: 83
7. Cc1ccc(Oc2ncc3nc(-c4cc(C)c(OCC(=O)O)c(C)c4)oc3n2)cc1F :: 87
8. Cc1cc(-c2nc3cnc(Oc4ccccc4F)nc3o2)cc(C)c1OCC(=O)O :: 110
9. Cc1cc(-c2nc3cnc(Oc4ccc(F)cc4F)nc3o2)cc(C)c1OCC(=O)O :: 95

P = Cc1cc(-c2nc3cnc(OC4CCCC4)nc3o2)cc(C)c1OCC(=O)O
Q = Cc1cc(-c2nc3cnc(Oc4ccccc4F)nc3o2)cc(C)c1OC(C)C(=O)O (centres unmarked)
Data request: Would you kindly point out which of P and Q has the smaller activation at 10 µM figure? Output the label that corresponds to your choice.
Data returned: P
(P: 46%, Q: 84%)

Source: patent US8846692B2
